tested.target: H3 receptor (Sus scrofa, UniProt A0A287B9V8)
Sequence (A0A287B9V8 1-448): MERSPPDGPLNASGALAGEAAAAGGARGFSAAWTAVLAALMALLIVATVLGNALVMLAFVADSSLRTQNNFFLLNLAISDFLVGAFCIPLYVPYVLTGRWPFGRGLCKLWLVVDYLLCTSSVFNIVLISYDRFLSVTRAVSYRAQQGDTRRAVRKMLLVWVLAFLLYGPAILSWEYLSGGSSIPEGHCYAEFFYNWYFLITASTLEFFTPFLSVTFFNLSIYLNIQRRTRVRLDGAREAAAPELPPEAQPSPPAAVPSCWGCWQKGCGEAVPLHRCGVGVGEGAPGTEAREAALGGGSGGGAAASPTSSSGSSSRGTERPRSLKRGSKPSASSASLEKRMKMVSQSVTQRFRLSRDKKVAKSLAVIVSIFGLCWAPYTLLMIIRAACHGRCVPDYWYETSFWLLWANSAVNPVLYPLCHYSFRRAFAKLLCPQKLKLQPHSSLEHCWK
measurement.protocol: Pig-PET study with [11C]GSK189254: pig brain H3 receptor occupancy over time and kon-koff limited model
condition.notes: Kd (koff/kon), 50 micrograms/kg i.v.; pig 3; in vivo PK/RO model
pKd: −log10 of the molar value. Structures can show the parent of a compound that is named as a salt.

{"columns": ["molecule", "pKd"],
 "data": [
  ["CC(C)N1CCN(C(=O)c2ccc(OC3CCOCC3)cc2)CC1.Cl [Example E1, Hydrochloride]", 7.87],
  ["CC(C)N1CCCN(C(=O)c2ccc(OC3CCOCC3)cc2)CC1 [Salt B, hydrochloride, reference compound]", 8.44]
]}

---

tested.target: H3 receptor (Sus scrofa, UniProt A0A287B9V8)
measurement.protocol: Pig-PET study with [11C]GSK189254: pig brain H3 receptor occupancy over time and kon-koff limited model
condition.notes: Kd (koff/kon), 50 micrograms/kg i.v.; pig 1; in vivo PK/RO model
Where a name gives a salt, the structure may show the parent alone.
Overview of reported Kd across a group of compounds:
metric: Kd (nM)

{"columns": ["compound", "tested.target", "value.reported"],
 "data": [
  ["CC(C)N1CCCN(C(=O)c2ccc(OC3CCOCC3)cc2)CC1 [Salt B, hydrochloride, reference compound]", "H3 receptor (Sus scrofa, UniProt A0A287B9V8)", 5.6],
  ["CC(C)N1CCN(C(=O)c2ccc(OC3CCOCC3)cc2)CC1.Cl [Example E1, Hydrochloride]", "H3 receptor (Sus scrofa, UniProt A0A287B9V8)", 4.47]
]}

---

tested.target: H3 receptor (Sus scrofa, UniProt A0A287B9V8)
measurement.protocol: Pig-PET study with [11C]GSK189254: pig brain H3 receptor occupancy over time and kon-koff limited model
condition.notes: Kd (koff/kon), 50 micrograms/kg i.v.; mean of pigs 1-3
Where a name gives a salt, the structure may show the parent alone.

{"columns": ["compound", "unit.abbreviation", "Kd"],
 "data": [
  ["CC(C)N1CCN(C(=O)c2ccc(OC3CCOCC3)cc2)CC1.Cl [Example E1, Hydrochloride]", "nM", 9.08],
  ["CC(C)N1CCCN(C(=O)c2ccc(OC3CCOCC3)cc2)CC1 [Salt B, hydrochloride, reference compound]", "nM", 4.76]
]}

---

pKd overview
tested.target: H3 receptor (Sus scrofa)
measurement.protocol: Pig-PET study with [11C]GSK189254: pig brain H3 receptor occupancy over time and kon-koff limited model
condition.notes: Kd (koff/kon), 50 micrograms/kg i.v.; pig 2; in vivo PK/RO model
pKd: −log10 of the molar value. Counter-ions that a name gives are not always drawn.
metric: pKd

{"columns": ["compound", "tested.target", "metric", "value.reported"],
 "data": [
  ["CC(C)N1CCCN(C(=O)c2ccc(OC3CCOCC3)cc2)CC1 [Salt B, hydrochloride, reference compound]", "H3 receptor (Sus scrofa)", "pKd", 8.30],
  ["CC(C)N1CCN(C(=O)c2ccc(OC3CCOCC3)cc2)CC1.Cl [Example E1, Hydrochloride]", "H3 receptor (Sus scrofa)", "pKd", 8.03]
]}
